Assignment: determine reported Relative binding affinity for the given compounds.
assay system: Estrogen receptor beta (Homo sapiens)
protocol summary: Binding affinity for human ER(estrogen receptor)beta
Note: the reply should be a number with no unit written.

Endpoint output: Relative binding affinity of C[C@@H]1Cc2cc(O)ccc2C2=C1c1ccc(O)cc1C[C@@H]2C . Value?
254

Same question, CC1Cc2cc(O)ccc2C2=C1c1ccc(O)cc1C[C@H]2C (single isomer, unassigned) this time
76

Now give it for Oc1ccc2c(c1)CCC1=C2CCc2cc(O)ccc21 too.
6.5

For CCCC1Cc2cc(O)ccc2C2=C1c1ccc(O)cc1CC2CCC (stereo not drawn) then?
92.3

Continue with C[C@]12CC[C@@H]3c4ccc(O)cc4CC[C@H]3[C@@H]1CC[C@@H]2O
100

Request: CCC[C@H]1Cc2cc(O)ccc2C2=C1c1ccc(O)cc1C[C@@H]2CCC
5.1

Could you do the same for CCC[C@@H]1Cc2cc(O)ccc2C2=C1c1ccc(O)cc1C[C@H]2CCC , please?
26

// next record CC1Cc2cc(O)ccc2C2=C1c1ccc(O)cc1C[C@@H]2C (single isomer, unassigned)
75
